measurementTarget: DRB5*0101 molecules (Homo sapiens, UniProt P01903+Q30154)
protocol: Inhibition of radiolabeled TT
Residues, ends and D or L forms follow the SMILES beside them.
metric: pIC50
Scale: pIC50 equals -log10([C]), with [C] in mol/L.

| compound | measurementTarget | quantitativeReadout |
| --- | --- | --- |
| CC[C@H](C)[C@H](NC(=O)[C@H](CC(N)=O)NC(=O)[C@H](CCCCN)NC(=O)[C@H](Cc1ccccc1)NC(=O)[C@H](Cc1ccccc1)NC(=O)[C@H](Cc1c[nH]cn1)NC(=O)[C@@H](NC(=O)[C@@H](NC(=O)[C@@H]1CCCN1C(=O)[C@H](CC(N)=O)NC(=O)[C@@H](N)CCC(=O)O)C(C)C)C(C)C)C(=O)N[C@@H](C)C(=O)N[C@H](C(=O)N1CCC[C@H]1C(=O)N[C@@H](CCCNC(=N)N)C(=O)O)[C@@H](C)O [(85-99)96A] (H-ENPVVHFFKNIATPR-OH) | DRB5*0101 molecules (Homo sapiens, UniProt P01903+Q30154) | 6.14 |

Lookup: Entry CC[C@H](C)[C@H](NC(=O)[C@H](CC(N)=O)NC(=O)[C@H](CCCCN)NC(=O)[C@H](Cc1ccccc1)NC(=O)[C@H](Cc1ccccc1)NC(=O)[C@H](Cc1c[nH]cn1)NC(=O)[C@@H](NC(=O)[C@@H](NC(=O)[C@@H]1CCCN1C(=O)[C@H](CC(N)=O)NC(=O)[C@@H](N)CCC(=O)O)C(C)C)C(C)C)C(=O)N[C@H](C(=O)N[C@H](C(=O)N1CCC[C@H]1C(=O)N[C@@H](C)C(=O)O)[C@@H](C)O)C(C)C [(85-99)99A] (H-ENPVVHFFKNIVTPA-OH) , system DRB5*0101 molecules (Homo sapiens, UniProt P01903+Q30154): what pIC50 was measured?
Found: 5.64

Lookup: Entry CC[C@H](C)[C@H](NC(=O)[C@H](CC(N)=O)NC(=O)[C@H](CCCCN)NC(=O)[C@H](Cc1ccccc1)NC(=O)[C@H](Cc1ccccc1)NC(=O)[C@H](Cc1c[nH]cn1)NC(=O)[C@@H](NC(=O)[C@@H](NC(=O)[C@@H]1CCCN1C(=O)[C@H](CC(N)=O)NC(=O)[C@@H](N)CCC(=O)O)C(C)C)C(C)C)C(=O)N[C@H](C(=O)N[C@H](C(=O)N[C@@H](C)C(=O)N[C@@H](CCCNC(=N)N)C(=O)O)[C@@H](C)O)C(C)C [(85-99)98A] (H-ENPVVHFFKNIVTAR-OH) , system DRB5*0101 molecules (Homo sapiens, UniProt P01903+Q30154): what pIC50 was measured?
Found: 6.46

Lookup: Entry CC[C@H](C)[C@H](NC(=O)[C@H](CC(N)=O)NC(=O)[C@H](C)NC(=O)[C@H](Cc1ccccc1)NC(=O)[C@H](Cc1ccccc1)NC(=O)[C@H](Cc1c[nH]cn1)NC(=O)[C@@H](NC(=O)[C@@H](NC(=O)[C@@H]1CCCN1C(=O)[C@H](CC(N)=O)NC(=O)[C@@H](N)CCC(=O)O)C(C)C)C(C)C)C(=O)N[C@H](C(=O)N[C@H](C(=O)N1CCC[C@H]1C(=O)N[C@@H](CCCNC(=N)N)C(=O)O)[C@@H](C)O)C(C)C [(85-99)93A] (H-ENPVVHFFANIVTPR-OH) , system DRB5*0101 molecules (Homo sapiens, UniProt P01903+Q30154): what pIC50 was measured?
Found: 5.54

Lookup: Entry CC[C@H](C)[C@H](NC(=O)[C@H](CC(N)=O)NC(=O)[C@H](CCCCN)NC(=O)[C@H](Cc1ccccc1)NC(=O)[C@H](C)NC(=O)[C@H](Cc1c[nH]cn1)NC(=O)[C@@H](NC(=O)[C@@H](NC(=O)[C@@H]1CCCN1C(=O)[C@H](CC(N)=O)NC(=O)[C@@H](N)CCC(=O)O)C(C)C)C(C)C)C(=O)N[C@H](C(=O)N[C@H](C(=O)N1CCC[C@H]1C(=O)N[C@@H](CCCNC(=N)N)C(=O)O)[C@@H](C)O)C(C)C [(85-99)91A] (H-ENPVVHAFKNIVTPR-OH) , system DRB5*0101 molecules (Homo sapiens, UniProt P01903+Q30154): what pIC50 was measured?
Found: 5.89
